All figures here come from ChEMBL document CHEMBL1133858.

- TESTED TARGET: UniProt:P13945
- Sequence (P13945 whole entry, looked up): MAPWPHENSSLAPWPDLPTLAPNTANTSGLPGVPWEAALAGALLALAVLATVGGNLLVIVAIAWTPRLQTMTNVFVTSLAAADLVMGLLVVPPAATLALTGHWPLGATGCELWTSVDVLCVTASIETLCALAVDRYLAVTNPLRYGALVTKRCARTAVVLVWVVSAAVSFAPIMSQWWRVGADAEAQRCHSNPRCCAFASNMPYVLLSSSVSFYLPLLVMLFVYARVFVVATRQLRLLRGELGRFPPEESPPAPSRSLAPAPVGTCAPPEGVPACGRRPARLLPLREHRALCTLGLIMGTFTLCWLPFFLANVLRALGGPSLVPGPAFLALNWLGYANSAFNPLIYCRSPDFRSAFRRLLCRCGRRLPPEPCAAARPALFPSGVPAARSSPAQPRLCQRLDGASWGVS
- MEASUREMENT NOTES: Agonist activity was assessed by measurement of cAMP accumulation levels in CHO membranes expressing human beta-3 receptor
- Assay type: functional, cell membranes
Reported Intrinsic activity by item:
Write the answer as a number in %, unit excluded.

MOLECULE: CS(=O)(=O)Nc1cc([C@@H](O)CN[C@H](Cc2ccccc2)c2ccc(C(=O)O)cc2)ccc1O
READING UNIT: %
Intrinsic activity: 123

MOLECULE: COC(=O)c1ccc([C@@H](Cc2ccccc2)NC[C@H](O)c2ccc(O)c(NS(C)(=O)=O)c2)cc1
READING UNIT: %
Intrinsic activity: 98

MOLECULE: CS(=O)(=O)Nc1cc([C@@H](O)CN[C@H](Cc2ccccc2)c2ccc3c(c2)OCO3)ccc1O
READING UNIT: %
Intrinsic activity: 94

MOLECULE: CS(=O)(=O)Nc1cc([C@@H](O)CN[C@H](Cc2ccccc2)c2ccc(CC(N)=O)cc2)ccc1O
READING UNIT: %
Intrinsic activity: 106

MOLECULE: CS(=O)(=O)Nc1cc(C(O)CNC(Cc2ccccc2)c2ccc3sccc3c2)ccc1O (centres undefined)
READING UNIT: %
Intrinsic activity: 90

q: Form field - read-out: Intrinsic activity; system: UniProt:P13945; submitted item: CS(=O)(=O)Nc1cc(C(O)CNC(Cc2ccccc2)c2nccs2)ccc1O (centres undefined)
a: 45

q: // map CS(=O)(=O)Nc1cc([C@@H](O)CN[C@H](Cc2ccccc2)c2ccc(C#N)cc2)ccc1O to recorded Intrinsic activity (system: UniProt:P13945)
a: 107

q: Query for UniProt:P13945: what Intrinsic activity does the record show for CS(=O)(=O)Nc1cc([C@@H](O)CN[C@H](Cc2ccccc2)c2ccc(OC(F)F)c3ccccc23)ccc1O ?
a: 100

q: Checklist item: Intrinsic activity tested on UniProt:P13945, entry CS(=O)(=O)Nc1cc([C@@H](O)CN[C@H](Cc2ccccc2)c2cccc3ccccc23)ccc1O , value?
a: 105
